- target-desc: Cytochrome P450 3A4 (Homo sapiens, UniProt P08684)
- Sequence (P08684 whole entry): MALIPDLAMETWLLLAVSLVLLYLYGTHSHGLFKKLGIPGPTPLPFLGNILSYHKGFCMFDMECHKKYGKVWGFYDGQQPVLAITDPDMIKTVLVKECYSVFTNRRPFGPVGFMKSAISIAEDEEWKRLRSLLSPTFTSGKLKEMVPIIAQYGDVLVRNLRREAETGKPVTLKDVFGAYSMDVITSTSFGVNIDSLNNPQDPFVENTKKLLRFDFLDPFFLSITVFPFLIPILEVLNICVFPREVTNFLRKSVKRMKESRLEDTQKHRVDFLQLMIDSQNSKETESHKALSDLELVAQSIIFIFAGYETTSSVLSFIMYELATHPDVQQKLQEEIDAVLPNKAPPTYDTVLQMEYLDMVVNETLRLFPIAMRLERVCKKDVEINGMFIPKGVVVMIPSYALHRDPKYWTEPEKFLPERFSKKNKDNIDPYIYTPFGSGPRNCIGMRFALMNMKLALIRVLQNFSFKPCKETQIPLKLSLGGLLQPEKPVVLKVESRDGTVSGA
pIC50: −log10 of the molar value.
measurement-kind: pIC50

Challenge: Recorded pIC50 for COc1cc2ncn(-c3cc(OCc4ccccc4S(C)(=O)=O)c(C#N)s3)c2cc1OC [GSK-319347A] with Cytochrome P450 3A4 (Homo sapiens, UniProt P08684), please?
Response given: < 4.30

====

Reported pIC50 values are given for each entry in this list.
- target-desc: Serine/threonine-protein kinase PLK1 (Homo sapiens)
- Sequence (P53350 whole entry): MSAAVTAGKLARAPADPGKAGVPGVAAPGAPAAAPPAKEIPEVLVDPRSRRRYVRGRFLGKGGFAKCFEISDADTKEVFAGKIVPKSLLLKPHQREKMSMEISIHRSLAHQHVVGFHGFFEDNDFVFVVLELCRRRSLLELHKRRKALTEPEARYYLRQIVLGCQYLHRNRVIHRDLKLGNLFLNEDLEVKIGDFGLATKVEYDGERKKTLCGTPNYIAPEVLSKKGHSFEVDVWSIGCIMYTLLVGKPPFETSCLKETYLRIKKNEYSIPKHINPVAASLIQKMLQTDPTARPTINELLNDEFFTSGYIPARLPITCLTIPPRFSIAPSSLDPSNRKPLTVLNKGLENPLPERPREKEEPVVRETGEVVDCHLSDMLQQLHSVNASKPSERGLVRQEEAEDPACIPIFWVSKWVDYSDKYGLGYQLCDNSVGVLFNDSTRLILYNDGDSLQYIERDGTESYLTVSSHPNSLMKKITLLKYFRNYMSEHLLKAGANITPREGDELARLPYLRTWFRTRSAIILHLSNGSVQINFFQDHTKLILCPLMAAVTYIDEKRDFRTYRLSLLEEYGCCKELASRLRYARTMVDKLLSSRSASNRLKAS
pIC50 here: minus log base 10 of the concentration, concentration in moles per litre.

COc1cc2ncn(-c3cc(OCc4ccc(S(C)(=O)=O)cc4)c(C#N)s3)c2cc1OC | 6.20

Challenge: Recorded pIC50 for COc1cc2ncn(-c3cc(OCc4ccccc4)c(C(=O)O)s3)c2cc1OC with Serine/threonine-protein kinase PLK1 (Homo sapiens), please?
Response given: 6.20

Challenge: Recorded pIC50 for COc1cc2ncn(-c3cc(OCc4ccccc4S(C)(=O)=O)c(C#N)s3)c2cc1OC [GSK-319347A] with Serine/threonine-protein kinase PLK1 (Homo sapiens), please?
Response given: 6.10
